All values here come from PubChem BioAssay AID1159580.

Test: chemical genetic growth profiling, strain panel (AID 1159580);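 also: tested at 20 µM; growth read once vehicle control cultures reached saturation at 30 °C; 1 = growth at the plate median or of vehicle wells; lower values mean less growth of the strain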
Conditions: S. cerevisiae deletion strains, growth OD, locus YGR040W, strain KSS1, hits give low values
The campaign covered roughly 5,500 compounds. About 2,000 (36%) were called active. Not shown: some 18% with an inconclusive outcome. This is one part of the list.
Answer each item with its documented normalized growth.
Response field accepts a number only; no unit should be typed.

[Q] Recorded normalized growth for N/C(=N/OC(=O)Nc1cccc(C(F)(F)F)c1)c1ccc(OC(F)(F)F)cc1 , please?
[A] 0.837

[Q] Also FC(F)(F)Oc1ccc(OCc2n[nH]c(=S)n2-c2ccc(Cl)cc2)cc1 ?
[A] 1.01

[Q] Also O=S(=O)(Nc1ccccc1Sc1c(Cl)cncc1Cl)c1ccc(Cl)cc1 ?
[A] 0.993

[Q] Also COc1ccccc1N1CCN(C(=O)C(C)c2ccc(CC(C)C)cc2)CC1 (stereo not given) ?
[A] 0.936

[Q] Also Cc1ccc(Sc2ncccc2NS(=O)(=O)c2ccc(Cl)cc2)cc1 ?
[A] 0.858

[Q] Also Cc1cc(-c2onc(C)c2C(=O)Sc2ccccc2)no1 ?
[A] 0.852

[Q] Also CC1(C)C=Cc2cc(/C(N)=N\OC(=O)Nc3cccc(C(F)(F)F)c3)ccc2O1 ?
[A] 0.968

[Q] Also N#Cc1nccnc1N1CCN(C(=O)Nc2cc(Cl)cc(Cl)c2)CC1 ?
[A] 0.946

[Q] Also FC(F)(F)Sc1ccc(OCc2n[nH]c(=S)n2-c2ccccc2)cc1 ?
[A] 0.949

[Q] Also N#C/C(N=Cc1cc(Cl)cc(Cl)c1O)=C(\C#N)N=Cc1cc(Cl)cc(Cl)c1O ?
[A] 0.621

----------
Assay: chemical genetic growth profiling, strain panel (AID 1159580);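 also: tested at 20 µM; growth read once vehicle control cultures reached saturation at 30 °C; 1 = growth at the plate median or of vehicle wells; lower values mean less growth of the strain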
Settings: S. cerevisiae deletion strains, growth OD, locus YPL209C, strain IPL1
Hit rate of the full screen: of about 5,500 compounds, about 2,000 (36%) were called active. Inconclusive results (about 18%) are left out. Cut-off read from the data, not from the text of the source: active = normalized growth mostly below about 0.91 (no sharp cut-off); inconclusive = no clear call, values can overlap the other calls; inactive = mostly above about 0.92. Some of the results follow.
Valid outcomes are listed here; reply with one: active, inactive

[Q] Just curious, what result did FC(F)(F)Sc1ccc(OCc2n[nH]c(=S)n2-c2ccccc2)cc1 get here?
[A] inactive

[Q] Also O=S(=O)(c1cc(Cl)ccc1Cl)N1CCc2ccccc2C1 ?
[A] inactive

[Q] Also FC(F)(F)Oc1ccc(OCc2n[nH]c(=S)n2-c2ccc(Cl)cc2)cc1 ?
[A] inactive

[Q] Also COC(=O)/C=C1/OC(c2ccc(OC)cc2)=CC1=O ?
[A] active

[Q] Also O=c1[nH][nH]c(=O)n1CCCc1cc2cccc3ccc4cccc1c4c32 ?
[A] inactive

[Q] Also N#Cc1ccc2[nH]cc(CCN(Cc3ccccc3)Cc3ccccc3)c2c1 ?
[A] inactive

[Q] Also OC(COCc1ccccc1)Cn1c2ccccc2c2ccccc21 (stereo unspecified) ?
[A] inactive

[Q] Also COc1ccc(N=C2SCC(c3ccc(C)cc3)=NN2CCO)cc1 ?
[A] inactive

[Q] Also N/C(=N/OC(=O)Nc1cccc(C(F)(F)F)c1)c1ccc(OC(F)(F)F)cc1 ?
[A] inactive

[Q] Also COc1ccc(Br)c(C(=O)/C(C#N)=C/c2cccs2)c1 ?
[A] inactive

[Q] Also O=C(O/N=C1/CCCc2[nH]c3ccccc3c21)c1ccc(Cl)cc1Cl ?
[A] inactive

----------
Assay: chemical genetic growth profiling, strain panel (AID 1159580);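 also: tested at 20 µM; growth read once vehicle control cultures reached saturation at 30 °C; 1 = growth at the plate median or of vehicle wells; lower values mean less growth of the strain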
Conditions: S. cerevisiae deletion strains, growth OD, locus YEL061C, strain CIN8 (second series)
The campaign covered roughly 5,500 compounds. About 2,000 (36%) were called active. Roughly 18% stayed inconclusive and do not appear here. Rule as the data show it: active = normalized growth mostly below about 0.91 (no sharp cut-off); inconclusive = no clear call, values can overlap the other calls; inactive = mostly above about 0.92. This is one part of the list.
Valid outcomes are listed here; reply with one: 1 for active, -1 for inactive

[Q] Just curious, what result did N#Cc1c(Cl)cccc1Cl get here?
[A] -1

[Q] Also CC(C)c1cccc(C(C)C)c1O ?
[A] -1

[Q] Also COc1ccccc1N1CCN(CCCNc2cc(=O)n(C)c(=O)n2C)CC1 ?
[A] -1

[Q] Also COC1=CC(=O)C=C(OC)C1=O ?
[A] -1

[Q] Also CC(=O)N1CCN(c2ccc(OCC3CO[C@](Cn4ccnc4)(c4ccc(Cl)cc4Cl)O3)cc2)CC1 (stereo not given in full) ?
[A] 1

[Q] Also Cc1ccccc1N1C(=O)c2cc(S(N)(=O)=O)c(Cl)cc2NC1C (stereo not given) ?
[A] -1

[Q] Also COc1ccc(-c2cc(=O)c3c(O)c(OC)c(OC)c(OC)c3o2)cc1OC ?
[A] -1

[Q] Also COc1ccc(-c2cc(=O)c3c(O)cc(O)cc3o2)cc1 ?
[A] -1

[Q] Also NCCCC(O)(P(=O)(O)O)P(=O)(O)O ?
[A] -1

[Q] Also C=CCSSCC=C ?
[A] -1

[Q] Also CC1(C)[C@@H]2CC[C@@]1(C)C(=O)C2 ?
[A] -1

[Q] Also O=c1c(-c2ccc(O)cc2)coc2c(C3O[C@H](CO)[C@@H](O)[C@H](O)[C@H]3O)c(O)ccc12 (stereo not given in full) ?
[A] -1

[Q] Also O=C(O)c1ccccc1O ?
[A] -1

[Q] Also CC(=O)OCC(=O)[C@@]1(O)CCC2C3C[C@H](C)C4=CC(=O)C=CC4(C)C3[C@@H](O)CC21C (stereo not given in full) ?
[A] -1

[Q] Also CC(=O)O[C@@H]1CC2C(C)(CC[C@H](O)C2(C)C)C2CC[C@]3(C)C(=CC(=O)O[C@H]3c3ccoc3)C21C (stereo not given in full) ?
[A] -1

[Q] Also Cc1ccc(-c2nc3ccc(C)cn3c2CC(=O)N(C)C)cc1 ?
[A] -1

[Q] Also C[C@@H]1CCC2[C@](C)(CO)[C@@H](O)CC[C@]2(C)[C@@]12CC[C@@](CO)(CCO)O2 (stereo not given in full) ?
[A] -1

[Q] Also CC(C)=CC1C(CO)C1(C)C (stereo not given) ?
[A] -1

[Q] Also CCCc1nn(C)c2c(=O)[nH]c(-c3cc(S(=O)(=O)N4CCN(C)CC4)ccc3OCC)nc12 ?
[A] -1

[Q] Also CC1(C)O[C@@H]2CC3C4C[C@H](F)C5=CC(=O)CC[C@]5(C)C4[C@@H](O)C[C@]3(C)[C@]2(C(=O)CO)O1 (stereo not given in full) ?
[A] -1

[Q] Also CCc1ccc2c(O)c3c(cc2c1C(=O)OC)C(=O)c1c(O)ccc(O)c1C3=O ?
[A] -1

[Q] Also NC[C@H]1O[C@H](OC2[C@@H](N)C[C@@H](N)[C@H](O[C@H]3O[C@H](CO)[C@@H](O)[C@H](N)[C@H]3O)[C@H]2O)[C@H](O)[C@@H](O)[C@@H]1O (stereo not given in full) ?
[A] -1

[Q] Also COC(=O)[C@H]1[C@H]2C[C@H]3c4[nH]c5cc(OC)ccc5c4CCN3C[C@H]2C[C@@H](OC(=O)c2cc(OC)c(OC)c(OC)c2)[C@@H]1OC ?
[A] -1

[Q] Also CC1Cc2ccccc2N1NC(=O)c1ccc(Cl)c(S(N)(=O)=O)c1 (stereo not given) ?
[A] -1

[Q] Also CNC[C@H](O)c1cccc(O)c1 ?
[A] -1

----------
Assay: chemical genetic growth profiling, strain panel (AID 1159580);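 also: tested at 20 µM; growth read once vehicle control cultures reached saturation at 30 °C; 1 = growth at the plate median or of vehicle wells; lower values mean less growth of the strain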
Conditions: S. cerevisiae deletion strains, growth OD, locus YDL017W, strain CDC7, hits give low values
Out of some 5,500 compounds screened, about 2,000 (36%) were called active. Inconclusive results (about 18%) are left out. This is one part of the list.
Answer each item with its documented normalized growth.
Response field accepts a number only; no unit should be typed.

[Q] Recorded normalized growth for O=C(NNc1cc(C(F)(F)F)cc(C(F)(F)F)c1)c1cnc2n(c1=O)CCS2 , please?
[A] 0.986

[Q] Also COc1ccc(N=C2SCC(c3ccc(C)cc3)=NN2CCO)cc1 ?
[A] 0.982

[Q] Also O=c1cc(CSc2ccc(Cl)cc2)c2ccc(O)cc2o1 ?
[A] 0.964

[Q] Also Clc1cccc(Cl)c1C1CC(c2ccccc2)=Nc2ccccc2S1 (stereo not drawn) ?
[A] 0.98

[Q] Also CC(C)(C)NC(=S)N/N=C\c1cc(Br)c(O)c(Br)c1 ?
[A] 0.966

[Q] Also C/C(=N/NC(N)=S)c1csc(-c2ccccc2)n1 ?
[A] 0.962

[Q] Also O=C(O/N=C1/CCCc2[nH]c3ccccc3c21)C1CCCCC1 ?
[A] 0.955

[Q] Also O=C1Nc2ccccc2/C1=C\c1c[nH]c2ccccc12 ?
[A] 0.717

[Q] Also O=C1Nc2ccccc2/C1=C\c1cccc2ccccc12 ?
[A] 0.963

[Q] Also Cc1cc(Br)c(O)c(/C=N\NC(=S)NC(C)(C)C)c1 ?
[A] 0.972

[Q] Also COc1ccc(Br)c(C(=O)/C(C#N)=C/c2cccs2)c1 ?
[A] 0.921

[Q] Also O=C(Nc1cc2ccccc2s1)N1CCN(Cc2c(F)cccc2Cl)CC1 ?
[A] 0.983

[Q] Also O=C(O/N=C1/CCCc2[nH]c3ccccc3c21)c1ccc(Cl)cc1Cl ?
[A] 0.974

[Q] Also O=S(=O)(Nc1ccccc1Sc1c(Cl)cncc1Cl)c1ccc(Cl)cc1 ?
[A] 0.986

[Q] Also N#Cc1nccnc1N1CCN(C(=O)Nc2cc(Cl)cc(Cl)c2)CC1 ?
[A] 0.969

[Q] Also CO/N=C1/CC(C)(C)Cc2c(-c3ccn(C(=O)Nc4cccc(Cl)c4)n3)sc(SC)c21 ?
[A] 0.967

[Q] Also CN1/C(=C/C=C/c2ccc3ccccc3[n+]2C)C=Cc2ccccc21 ?
[A] 0.903

[Q] Also FC(F)(F)Oc1ccc(OCc2n[nH]c(=S)n2-c2ccc(Cl)cc2)cc1 ?
[A] 0.995

[Q] Also CCn1nc(C)cc1C(=O)Sc1cccc(Br)c1 ?
[A] 0.935

[Q] Also O=c1[nH][nH]c(=O)n1CCCc1cc2cccc3ccc4cccc1c4c32 ?
[A] 0.994

[Q] Also Cc1ccc(OS(=O)(=O)c2c(Cl)sc(Cl)c2Br)c([N+](=O)[O-])n1 ?
[A] 0.957

[Q] Also CCOC(=O)NC(=S)Nc1ccc(C(C)(C)C)cc1NC(=S)NC(=O)OCC ?
[A] 0.989

[Q] Also O=C(Nc1ccc(SC(F)(F)F)cc1)Nc1ccc(Oc2cccc(C(F)(F)F)c2)nc1 ?
[A] 0.996

[Q] Also O=C(Nc1ccccc1C(=O)O)OCC1c2ccccc2-c2ccccc21 ?
[A] 0.986

[Q] Also CC(C)/C(=N/OC(=O)c1ccc([N+](=O)[O-])cc1)c1ccccc1 ?
[A] 0.963

[Q] Also OC(COCc1ccccc1)Cn1c2ccccc2c2ccccc21 (stereo not drawn) ?
[A] 0.953

[Q] Also O=C(OCc1ccccc1Br)c1cc([N+](=O)[O-])cc([N+](=O)[O-])c1 ?
[A] 0.984

[Q] Also O=C1OC(c2ccccc2)=C/C1=C/c1ccccc1 ?
[A] 0.95

[Q] Also N/C(=N/OC(=O)c1cnn(-c2ccc([N+](=O)[O-])cc2)c1C(F)(F)F)c1ccc(Cl)cc1 ?
[A] 0.984

[Q] Also ONC(=Nc1ccccc1Cl)c1ccccc1Cl ?
[A] 0.988

[Q] Also Cc1ccc(Sc2ncccc2NS(=O)(=O)c2ccc(Cl)cc2)cc1 ?
[A] 0.937

[Q] Also Cc1cc(-c2onc(C)c2C(=O)Sc2ccccc2)no1 ?
[A] 0.957

[Q] Also N#C/C(N=Cc1cc(Cl)cc(Cl)c1O)=C(\C#N)N=Cc1cc(Cl)cc(Cl)c1O ?
[A] 0.923
